assay-name: Tmax in Sprague-Dawley rat at 2 mg/kg, po
Type: ADME, organism-based
Design: dose 2 mg/kg, route oral
condition: in vivo
property-label: Tmax (min)
# output: bare number, implied unit min

// sample O=C(Nc1cnc(Cl)nc1)c1ccc(F)c(F)c1 , its Tmax was 30

* * *

target-entity: Sodium channel protein type 5 subunit alpha (Homo sapiens, UniProt Q14524)
Sequence (Q14524 whole entry): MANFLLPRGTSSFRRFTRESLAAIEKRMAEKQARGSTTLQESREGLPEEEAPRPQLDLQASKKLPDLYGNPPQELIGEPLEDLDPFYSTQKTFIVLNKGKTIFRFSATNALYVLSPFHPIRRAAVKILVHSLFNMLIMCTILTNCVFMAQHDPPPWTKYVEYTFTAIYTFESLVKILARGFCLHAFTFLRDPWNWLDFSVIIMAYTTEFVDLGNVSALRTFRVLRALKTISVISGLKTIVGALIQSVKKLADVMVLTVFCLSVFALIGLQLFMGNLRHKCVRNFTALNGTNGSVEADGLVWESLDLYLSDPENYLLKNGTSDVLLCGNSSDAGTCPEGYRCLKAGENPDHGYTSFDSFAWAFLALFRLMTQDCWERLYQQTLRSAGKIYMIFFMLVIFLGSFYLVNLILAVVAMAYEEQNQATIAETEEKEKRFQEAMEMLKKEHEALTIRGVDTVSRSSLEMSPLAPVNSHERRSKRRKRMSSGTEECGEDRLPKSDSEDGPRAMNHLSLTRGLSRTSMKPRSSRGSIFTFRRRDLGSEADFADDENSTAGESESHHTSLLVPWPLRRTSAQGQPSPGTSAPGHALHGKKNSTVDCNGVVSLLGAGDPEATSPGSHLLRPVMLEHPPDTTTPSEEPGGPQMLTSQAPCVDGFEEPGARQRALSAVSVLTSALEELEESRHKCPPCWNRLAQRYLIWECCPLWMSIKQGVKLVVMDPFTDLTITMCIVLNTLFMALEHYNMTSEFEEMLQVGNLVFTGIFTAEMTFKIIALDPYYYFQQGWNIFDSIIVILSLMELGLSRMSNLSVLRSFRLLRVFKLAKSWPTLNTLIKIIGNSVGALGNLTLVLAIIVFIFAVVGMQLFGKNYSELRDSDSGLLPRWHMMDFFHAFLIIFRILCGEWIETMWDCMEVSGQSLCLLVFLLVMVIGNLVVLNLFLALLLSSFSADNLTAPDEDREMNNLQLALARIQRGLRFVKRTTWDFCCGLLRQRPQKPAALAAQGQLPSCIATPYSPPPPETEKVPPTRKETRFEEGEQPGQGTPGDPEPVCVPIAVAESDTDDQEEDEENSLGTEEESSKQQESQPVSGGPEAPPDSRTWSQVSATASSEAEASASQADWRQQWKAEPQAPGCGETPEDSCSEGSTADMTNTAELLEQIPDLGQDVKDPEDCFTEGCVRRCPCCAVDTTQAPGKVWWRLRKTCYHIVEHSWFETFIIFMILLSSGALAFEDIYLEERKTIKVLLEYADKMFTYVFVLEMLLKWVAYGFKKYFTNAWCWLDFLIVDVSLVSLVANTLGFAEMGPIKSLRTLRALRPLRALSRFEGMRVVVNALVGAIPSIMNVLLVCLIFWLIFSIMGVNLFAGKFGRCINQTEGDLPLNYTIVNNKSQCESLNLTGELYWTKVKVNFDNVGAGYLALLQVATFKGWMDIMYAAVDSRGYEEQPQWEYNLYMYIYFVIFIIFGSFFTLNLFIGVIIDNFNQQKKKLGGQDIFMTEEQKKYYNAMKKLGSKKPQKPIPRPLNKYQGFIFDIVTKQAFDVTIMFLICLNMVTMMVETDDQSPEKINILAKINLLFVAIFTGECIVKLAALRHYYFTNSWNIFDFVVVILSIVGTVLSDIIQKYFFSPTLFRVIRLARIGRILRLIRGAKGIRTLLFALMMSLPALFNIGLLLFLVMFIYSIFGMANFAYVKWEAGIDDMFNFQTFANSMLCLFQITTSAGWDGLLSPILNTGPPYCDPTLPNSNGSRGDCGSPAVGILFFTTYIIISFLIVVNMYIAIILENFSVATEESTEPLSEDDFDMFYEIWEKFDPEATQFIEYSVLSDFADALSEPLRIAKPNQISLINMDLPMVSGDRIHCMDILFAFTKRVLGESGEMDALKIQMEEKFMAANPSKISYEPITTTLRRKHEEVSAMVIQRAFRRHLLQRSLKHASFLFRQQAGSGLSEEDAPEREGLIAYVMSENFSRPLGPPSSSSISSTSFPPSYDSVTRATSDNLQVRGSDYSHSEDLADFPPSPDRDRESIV
assay-name: Inhibition of NaV1.5
property-label: IC50

// sample O=C(Nc1cnc(Cl)nc1)c1ccc(F)c(F)c1 , its IC50 was > 30 µM

* * *

target-entity: Voltage-gated potassium channel, KQT; KCNQ2(Kv7.2)/KCNQ3(Kv7.3) (Homo sapiens, UniProt O43525+O43526)
Sequence (O43526 whole entry): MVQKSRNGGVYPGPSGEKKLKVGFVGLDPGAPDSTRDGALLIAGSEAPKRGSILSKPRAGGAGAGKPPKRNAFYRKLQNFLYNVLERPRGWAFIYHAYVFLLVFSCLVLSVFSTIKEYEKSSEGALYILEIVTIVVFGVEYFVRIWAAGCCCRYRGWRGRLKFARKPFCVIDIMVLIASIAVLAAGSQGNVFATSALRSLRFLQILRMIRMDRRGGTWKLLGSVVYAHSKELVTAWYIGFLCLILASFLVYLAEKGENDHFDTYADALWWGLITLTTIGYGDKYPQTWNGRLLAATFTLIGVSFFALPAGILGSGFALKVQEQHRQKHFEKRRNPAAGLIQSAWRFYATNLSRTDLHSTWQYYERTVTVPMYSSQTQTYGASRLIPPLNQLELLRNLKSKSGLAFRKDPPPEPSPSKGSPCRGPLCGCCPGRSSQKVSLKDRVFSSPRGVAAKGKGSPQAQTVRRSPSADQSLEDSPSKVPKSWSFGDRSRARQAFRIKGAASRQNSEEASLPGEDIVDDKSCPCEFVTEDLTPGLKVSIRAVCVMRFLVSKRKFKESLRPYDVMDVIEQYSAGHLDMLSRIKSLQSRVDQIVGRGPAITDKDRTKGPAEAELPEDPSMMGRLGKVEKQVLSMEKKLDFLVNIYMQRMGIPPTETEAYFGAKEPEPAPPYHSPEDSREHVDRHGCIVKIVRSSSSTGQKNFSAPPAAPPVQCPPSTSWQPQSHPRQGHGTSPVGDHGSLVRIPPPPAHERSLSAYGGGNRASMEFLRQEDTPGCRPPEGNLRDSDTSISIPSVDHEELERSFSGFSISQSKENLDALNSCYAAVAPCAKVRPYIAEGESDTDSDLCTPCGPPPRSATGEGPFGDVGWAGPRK
Sequence (O43525 whole entry): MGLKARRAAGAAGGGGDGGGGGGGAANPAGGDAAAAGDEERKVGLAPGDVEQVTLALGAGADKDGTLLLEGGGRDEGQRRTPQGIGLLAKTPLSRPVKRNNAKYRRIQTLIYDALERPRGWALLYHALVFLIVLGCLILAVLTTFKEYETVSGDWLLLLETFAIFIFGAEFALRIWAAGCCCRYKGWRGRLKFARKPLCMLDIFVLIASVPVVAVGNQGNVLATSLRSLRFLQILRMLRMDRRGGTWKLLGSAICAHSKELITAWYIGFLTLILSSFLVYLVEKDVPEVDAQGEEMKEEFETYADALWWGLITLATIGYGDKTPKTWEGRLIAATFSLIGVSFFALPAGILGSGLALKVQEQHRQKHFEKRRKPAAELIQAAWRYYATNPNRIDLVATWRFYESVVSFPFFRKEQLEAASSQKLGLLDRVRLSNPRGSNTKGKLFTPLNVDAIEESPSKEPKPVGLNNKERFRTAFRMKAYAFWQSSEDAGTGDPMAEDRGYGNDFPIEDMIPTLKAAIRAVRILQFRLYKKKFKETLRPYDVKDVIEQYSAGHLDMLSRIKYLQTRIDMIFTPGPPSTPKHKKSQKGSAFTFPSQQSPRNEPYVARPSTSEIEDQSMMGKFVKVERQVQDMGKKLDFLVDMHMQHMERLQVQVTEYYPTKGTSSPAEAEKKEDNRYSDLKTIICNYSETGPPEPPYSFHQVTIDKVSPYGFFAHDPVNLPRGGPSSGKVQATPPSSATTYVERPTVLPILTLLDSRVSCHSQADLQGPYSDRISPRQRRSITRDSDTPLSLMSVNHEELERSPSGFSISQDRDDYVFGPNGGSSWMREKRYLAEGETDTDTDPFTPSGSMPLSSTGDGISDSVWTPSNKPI
assay-name: Agonist activity at KCNQ2/KCNQ3 expressed in CHO cells assessed as increase in KCl-induced 86Rb+ efflux incubated for 10 mins prior to KCl-induction by liquid scintillation counting
property-label: pEC50
Lab note: report pEC50 as minus log10 of the concentration in molar units, number only.

Some solved entries appear below for comparison.
// sample N#Cc1ccc(C(=O)Nc2ccc(Cl)nc2)cc1F , its pEC50 was 5.96

// sample Cc1ccc(C(=O)Nc2ccc(Cl)nc2)cc1C , its pEC50 was 6.16

// sample O=C(Nc1ccc(Cl)nc1)c1ccc(C(F)(F)F)cc1 , its pEC50 was 6.49

// sample O=C(Nc1ccc(Cl)nc1)c1cccc(F)c1 , its pEC50 was 5.96

// sample O=C(Nc1ccc(Cl)nc1)c1ccc(F)c(F)c1 , its pEC50 was 6.42

---
// sample O=C(Nc1ccc(Cl)nc1)c1cccc(C(F)(F)F)c1 , its pEC50 was 6.41

Entry source: ChEMBL document CHEMBL2046284
